Tested on: MS2 coat protein
Assay: apparent KD of MS2 coat protein; designed switch direction (-1 OFF switch, 1 ON switch): -1; higher = weaker reporter binding
Details: Eterna round: R95; input ligand: none
// reported apparent KD of MS2 coat protein per item
MEASURE: apparent KD of MS2 coat protein (nM)

1. UCCAAGACAGGAUAUCUAGAGCCAAACAUGAGGAUCACCCAUGUGAAUCUCAGCAAACGCAGAGAAGGGUCAAAAU [Orisinxe] (puzzle: Exclusion 5) = 30.9
2. UUUAAUUUUUUUUUUUUACAAGCUUUUUGCUCGUCUUAUACAUGAGGAUCACCCAUGUAAGUGGGAAAUGAAUUAUC [JMF 99] (puzzle: Sensor v3, turn-off variant 2) = 77.9
3. AAGAAACAUGAGGAUCACCCAUGUGAGGAUAUGAAAAAGAAAAGAAAAGAAAGAAGGAUCAGAAGGCACAAAGG [salish99-ex1_r3_025] (puzzle: Exclusion 1) = 34.1
4. AGAAGUAGUAACCGAUCCUACAUGAGGAUCACCCAUGUAGCUAGACGUGCACGCGAUGCUCGUCAGACUACCAGAUG [salish99_TOv1_r3_027] (puzzle: Sensor v3, turn-off variant 1) = 171
5. AGACAGUCAGGAUAUACAUGAGGAUCACCCAUGUUGAGAUGAGAAAGGGCAGGAAGAGGUAGAAGGGACAAGAG [JR_Exclu3_Sub036] (puzzle: Exclusion 3) = 24.8

====

Tested on: MS2 coat protein
Experiment: apparent KD of MS2 coat protein; designed switch direction (-1 OFF switch, 1 ON switch): -1; higher = weaker reporter binding
Conditions: input ligand: none
MEASURE: apparent KD of MS2 coat protein

1) CCGCGUACAGGAUAUCCAUCUGGAUCAGACAAGAUCCUGAUGGAGAAGGGACAUGAGGAUCACCCAUGUUGCGG [Mat - Exclusion 4 - Eli Mod - D54] (Eterna round: R97, puzzle: Exclusion 4) = 19.3 nM
2) UUAUACAAGCAAAGAUCCCACAUGAGGAUCACCCAUGUGCUCGUCUUAUAAGGAACUGUGACGAAAGUCACGGUUCC [Mat - Sensor, turn-off var - Eli Mod - D100] (Eterna round: R97, puzzle: Sensor, turn-off variant 1) = 37.2 nM
3) UACACCACAUGAGGAUCAAACAUGAGGAUCACCCAUGUAUAGCAAGCUUUUUGCUCGUCUUAUAAAUAUGUGGUGUA [Electric Eye 6 - Jieux - Sensor, turn-off variant 1] (Eterna round: R97, puzzle: Sensor, turn-off variant 1) = 14.9 nM
4) AUUGUUUAUGUAGGAUAUGCCUGGCGUGCCUUUGCAGAAGGACAUGAGGAUCACCCAUGUAACAUGAGGCUCACCCAUGUCGCG [salish99_ExNG1_r04_113] (Eterna round: R96, puzzle: Exclusion NG 1) = 333 nM

====

Tested on: MS2 coat protein
Test: apparent KD of MS2 coat protein; designed switch direction (-1 OFF switch, 1 ON switch): -1; higher = weaker reporter binding
Conditions: Eterna round: R95; input ligand: none
MEASURE: apparent KD of MS2 coat protein

1. AAGGAUAGAGGAUAUACAUAGAUACAGGUUCAUGUAGAACUACAUGAGGAUCACCCAUGUAGAAGGCUAUCCUA [Fiskers Ex 2 - 8] (puzzle: Exclusion 2) = 21.1 nM
2. GUGUAACUACACGGGCUCAACAUGAGGAUCACCCAUGUCAUACACGCAAGCUUUUCGCUUGUCUUAUCUGUCCGUGA [Mainesleed] (puzzle: Sensor v3, turn-off variant 1) = 11.3 nM
3. AGUACUAACACGAAAGUGUUAGUACAAUAAGCUUGUGAAACAUGAGGAUCACCCAUGUCCUCAUAAGCUCGUCUUAU [salish99_TOv2_r3_001again] (puzzle: Sensor v3, turn-off variant 2) = 15.9 nM
4. CGUGACUCAGGAUAUCUAUGAUAUCACAUGAGGAUCACCCAUGUCCAGCAAUAGCUGGAGGGAGAAGGGAGUCACG [Fiskers Ex 5 - 41] (puzzle: Exclusion 5) = 166 nM
5. UGGUAACAUGAGGAUCACCCAUGUCAGGAUAUCAGUAAGAAGAGAGGAGAGUAGAAGAUGAGAAGGGACUAUAU [Excluse me! 9 - Jieux - Exclusion 1] (puzzle: Exclusion 1) = 37.4 nM
6. CUGGUCCGAGGAUAUAUUAAGUGAUACAUGAGGAUCACCCAUGUUAUUUGAUGGAUGUUAAUAGAAGGCGGACUAG [JL-ex5-3.18] (puzzle: Exclusion 5) = 57.6 nM
7. GAUAGGACGUGGUCAGGUAACAUGAGGAUCACCCAUGUAGGUCUAGGAACAAGCUUUUUGAAAGCUCGUCUUAUAAA [JR_SV3TOV1_Sub056] (puzzle: Sensor v3, turn-off variant 1) = 21.2 nM
8. UAUACUAGAUAGGAUAUACUAUAUAAAUAAUUCGUAGAAGGAUCUACAUGAGGAUCACCCAUGUUAACAGCAGU [JR_E6_Sub005] (puzzle: Exclusion 6) = 46.6 nM
9. AAGAAACAUGAGGAUCACCCAUGUCAGGAUAUCUCGAAAAGCAUAGAAAUAUGCGAAGAGAGAAGGGACUGCCC [ChP Ext 10-04-2015 #2] (puzzle: Exclusion 1) = 19.2 nM
10. GGUUGGCGAGGAUAUACAUGAGGAUCACCCAUGUGAGAGAUAAAAGUGAGGAAGAAAAGUAGAAGGCGCUGACG [salish99_ex3_r3_012] (puzzle: Exclusion 3) = 69 nM
11. UUUAAUUUUUUUUUUUUACAAGCUUUUUGCUCGUCUUAUACAUGAGGAUCACCCAUGUGGGUAGAGGGUAAAUUAUC [JMF 82] (puzzle: Sensor v3, turn-off variant 2) = 14.9 nM

====

// reported apparent KD of MS2 coat protein per item
System: MS2 coat protein
Assay: apparent KD of MS2 coat protein, switch OFF state (with FMN for OFF switches, without FMN for ON switches); designed switch direction (-1 OFF switch, 1 ON switch): -1; higher = weaker reporter binding
Conditions: FMN input: 0 or 200 uM; Eterna round: R93 (includes R88 designs)
MEASURE: apparent KD of MS2 coat protein (nM)

1) AAAGGAUCAGGAUAUGUGUGGGAAAAGUGUGUCCAAAAAAAACAUGAGGAUCACCCAUGUAGAAGGGAUCCAAA [Mod 6 of Normal (20/19) by Nando, Round 1] = 265
2) AACAGUACAGGAUAUACAUGAGGAUCACCCAUGUGAAAAUAAAGUGGCGUACCACAAAGUAGAAGGGUACUGAA [Mat - Exclusion 3 - JL mod - D26] = 124
3) AAAAAACAUGAGGAUCACCCAUGUGAGGAUAUCGAAAAGAAAAGAAAAGAAAGAAGAACGAGAAGGCACAAGAA [Sneferu] = 48

====

System: K4 kissing-loop RNA reporter;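 note: bound reporter read as fluorescence of individual clusters on recovered sequencing chips by microscopy, with normalized cluster intensities fitted with a binding model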
Test: apparent KD of K4 kissing-loop reporter; higher = weaker reporter binding
Conditions: Eterna round: R107; input ligand: none
// reported apparent KD of K4 kissing-loop reporter per item
MEASURE: apparent KD of K4 kissing-loop reporter

1. GGUUAGUGAUGUUGAUCAAAUCGCGGUGAUACCAGCAACACAUCGUGCCCUUGGCAGCACGGCAAAAUGAAUGCGGUCGAAUGCG [theeternabot_exclusion_KL_Theo_A_19] = 0.546 µM
2. GAGGUGGAGUGAUGUUCCACACUCGCUAGUAAGGAUAUGGCUGCUUCCAGAAGGUACCUAGAUUCAGUGUGCAUCAGUAACGUGC [theeternabot_exclusion_KL_FMN_A_4] = 0.106 µM
3. CGGAUGUAGUGAUGUUAUAUUAGAUGUAGACGAGGACCGGUACGGCCGCCACUCGUGAUGGCUGCUAGCGCGUUGCGAGGUUUGC [ExTryptoA.Co] = 0.567 µM
4. AAGGCCACGAGAAGGAGCGUGUUGUGGAGUGAUGUUCCACUGUAGACCUAAGGUCUACAGGCACAGGUAGGUCGCUCGUGGUCAA [Omei KL Arginine B SS A v6] = 0.145 µM
5. AUUUAAUGUAUAGAUUAUAUACAUUAUUCAGAGGAUAUGCAUUGAAGCAGAAGGCUGGGUGUAGUGAUGUUGCAAUUUUAAUUUA [whbob_SS_FMNA__2th172] = 0.159 µM
6. AGUGGUGUAUCUUUUAAGAGUGAUGUUUUUCGAGGACCGGUACGGCCGCCACUCGAGUGAUGAGAGCGUCGUUGUGGUGAUUAGU [#15 K4 Tryptophan A Exclusion] = 0.877 µM
7. UGGAGUUGACGAAAAGUCAACUCCUGAGAUACCAGUGACGAAAGUCACCCUUGGCAGCUCACUCCCAGUGAUGUUGGUUCAUAAG [#04 K4 Theophylline A Same State] = 0.601 µM
8. UCGAAAUGCGUCUCCUAGUUACUCCGGGAAGGAGCGUGGAUAACCGCAGGUAGGUCGCCCGGAAGCCGGACCAGUGAUGUUGGUC [Exclusion Arginine A Gf 29] = 0.221 µM
9. ACAGCGAGCAUUAACGCGCUCGCAGGUUGCAAGGAUAUAUUUCGUCAUAGAAGGUGCUAGACCAUAAGUGAUGUUUGUGGAUAUA [theeternabot_sameState_KL_FMN_A_16] = 0.503 µM
10. CCAUCGCUAUUCGAUACCAGUCUACGUAGGAAACUACGUCUGCAAAGGAGUGAUGUUCCAGACCCUUGGCAGCGAAUAGUGAUGG [Theophylline B K4 5] = 0.792 µM
11. GUCCCGAGUGAUGUUCGGGUCGUUUGGGAAGGAGCGCCCGGAAGGGCAGGUAGGUCGCCCGGACCCUGCAGGUAACUGUUGGGCC [#2 Same State - Arginine A Attempt #19 (HarryS)] = 0.21 µM
12. GGAUAGGACAGAGGAUAUCUCUGAGGCAAGAAAACUUGUCUCUAAAGAGAUGACUCAGUGAUGUUGAGAGAAGGCUGUCCUAUCG [FmnBX 9 - #SwitchBubble #StaticStem] = 0.152 µM
